Molecular target: T1, Anti-CD28 Fab (SEQ ID NOs: 696, 697)
T1 construct: In the phage ELISA the Fab was biotinylated and captured on neutravidin coated plates
T1 sequence (VH, as listed by the source, chain 1 of 2): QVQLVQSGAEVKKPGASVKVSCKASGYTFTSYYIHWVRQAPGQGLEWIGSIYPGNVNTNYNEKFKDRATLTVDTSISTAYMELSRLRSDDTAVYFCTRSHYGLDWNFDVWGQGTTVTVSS
T1 sequence (VL, as listed by the source, chain 2 of 2): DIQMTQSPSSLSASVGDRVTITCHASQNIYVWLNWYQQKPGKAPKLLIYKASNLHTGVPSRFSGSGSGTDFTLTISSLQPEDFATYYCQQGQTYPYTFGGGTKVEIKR
Test: phage binding ELISA; biotinylated anti-CD28 Fab on neutravidin plate, clonal phage supernatant, anti-M13 HRP
Criterion: Anti-CD28 Fab (SEQ ID NOs: 696, 697) signal meeting or surpassing 2. Met: label 1. Not met: label 0.

Reference set (7 entries):
| Binder | Category Label |
| --- | --- |
| TCAAGATYLWPTCL (Clonal phage of the Peptide-92 library, tested as crude supernatant; not shown: fused to the pIII filament of the bacteriophage) [Phage-1350] | label 0 |
| TCSAGATWAWPLCF (Clonal phage of the Peptide-92 library, tested as crude supernatant; not shown: fused to the pIII filament of the bacteriophage) [Phage-1349] | label 1 |
| TCSAGAHYPWPICL (Clonal phage of the Peptide-92 library, tested as crude supernatant; not shown: fused to the pIII filament of the bacteriophage) [Phage-1347] | label 0 |
| TCAAGAMWAWPVCL (Clonal phage of the Peptide-92 library, tested as crude supernatant; not shown: fused to the pIII filament of the bacteriophage) [Phage-1358] | label 1 |
| LCSAGAMWPWPTCL (Clonal phage of the Peptide-92 library, tested as crude supernatant; not shown: fused to the pIII filament of the bacteriophage) [Phage-1355] | label 1 |
| TCSAGATYEWPRCL (Clonal phage of the Peptide-92 library, tested as crude supernatant; not shown: fused to the pIII filament of the bacteriophage) [Phage-1346] | label 0 |
| SCSAGAHYPWPQCF (Clonal phage of the Peptide-92 library, tested as crude supernatant; not shown: fused to the pIII filament of the bacteriophage) [Phage-1345] | label 0 |

Now for a further binder.
Ask | Evaluate SCSAGAAYYWPWCL (Clonal phage of the Peptide-92 library, tested as crude supernatant; not shown: fused to the pIII filament of the bacteriophage) [Phage-1348] : Anti-CD28 Fab (SEQ ID NOs: 696, 697) signal at minimum 2?
Reply | label 0
